# Method description: Stability of lankacidin A and C in methanolic aqueous solutions, 40° C., HPLC (Example 7)
# Format: physicochemical
# Experimental context: methanolic buffer with β-cyclodextrin; 10 μg/ml; pH 4.5; β-cyclodextrin 10 mg/ml; 4 hr; 40° C.; read-out: Residual rate
Reported endpoint: remaining at 4 h

[[record]]
compound = "CC(=O)OC1C=CC(C)=CCC(O)C=CC(C)=CC(NC(=O)C(C)=O)C2(C)C(=O)OC(C1)C(C)C2=O (stereo not shown) [Lankacidin A, lankacidin A]"
value = "91.9%"


---

# Method description: Solubility of lankacidin C in aqueous cyclodextrin solution, shaken at 5° C. for 2 hours (Example 1)
# Type: physicochemical
# Experimental context: aqueous γ-cd solution, γ-CD 10^-2 Mol/l
Reported endpoint: solubility at 2 h (µg/mL)

[[record]]
molecule = "CC(=O)C(=O)NC1C=C(C)C=CC(O)CC=C(C)C=CC(O)CC2OC(=O)C1(C)C(=O)C2C (stereo not shown) [Lankacidin C, lankacidin C]"
reported_endpoint = "solubility at 2 h"
value = 2390


---

# Method description: Solubility in β-CD solution, shaken 16 hours (Example 3)
# Assay type: physicochemical
# Experimental context: aqueous β-cd solution, β-CD 2 × 10^-4 Mol/l
Reported endpoint: solubility at 16 h (µg/mL)

[[record]]
compound = "CC(=O)C(=O)NC1C=C(C)C=CC(O)CC=C(C)C=CC(O)CC2OC(=O)C1(C)C(=O)C2C (centres unmarked)"
unit_name = "µg/mL"
value = 304

[[record]]
compound = "CC(=O)OC1C=CC(C)=CCC(O)C=CC(C)=CC(NC(=O)C(C)=O)C2(C)C(=O)OC(C1)C(C)C2=O (centres unmarked)"
unit_name = "µg/mL"
value = 201


---

# Method description: Solubility of lankacidin C in aqueous cyclodextrin solution, shaken at 5° C. for 2 hours (Example 1)
# Type: physicochemical
# Experimental context: aqueous γ-cyclodextrin solution, γ-CD 10^-1 Mol/l
Reported endpoint: solubility at 2 h (µg/mL)

[[record]]
molecule = "CC(=O)C(=O)NC1C=C(C)C=CC(O)CC=C(C)C=CC(O)CC2OC(=O)C1(C)C(=O)C2C (stereo not shown) [Lankacidin C, lankacidin C]"
value = 3790


---

# Method description: Solubility of lankacidin-group in β-CD solution (10^-2 Mol/l), shaken 30 minutes to one hour (Example 4)
# Format: physicochemical
# Experimental context: β-CD 0 Mol/l (water); read-out: Solubility
Returns 1.0 if the recorded solubility is greater than or equal to 70 µg/mL, and 0.0 otherwise.

[[record]]
compound = "CC(=O)OC1C=CC(C)=CC(NC(=O)C(C)O)C2(C)C(=O)OC(CC(OC(C)=O)C=CC(C)=CC1)C(C)C2=O (stereo not drawn) [Lankacidinol 8,14-diacetate]"
qualitative_label = 1.0

[[record]]
compound = "CC(=O)OC1C=CC(C)=CCC(O)C=CC(C)=CC(NC(=O)C(C)O)C2(C)C(=O)OC(C1)C(C)C2=O (stereo not drawn)"
qualitative_label = 1.0

[[record]]
compound = "CC(=O)OC1C=CC(C)=CC(NC(=O)C(C)=O)C2(C)C(=O)OC(CC(OC(C)=O)C=CC(C)=CC1)C(C)C2=O (stereo not drawn) [Lankacidin C 8,14-diacetate, lankacidin C 8,14-diacetate]"
qualitative_label = 0.0

[[record]]
compound = "CCCC(=O)OC1C=CC(C)=CC(NC(=O)C(C)=O)C2(C)C(=O)OC(CC(O)C=CC(C)=CC1)C(C)C2=O (stereo not drawn) [Lankacidin C 8-butylate]"
qualitative_label = 0.0

[[record]]
compound = "CC(=O)OC1C=CC(C)=CC(NC(=O)C(C)=O)C2(C)C(=O)OC(CC(O)C=CC(C)=CC1)C(C)C2=O (stereo not drawn) [Lankacidin C 8-acetate, lankacidin C 8-acetate]"
qualitative_label = 1.0

[[record]]
compound = "CCCC(=O)OC1C=CC(C)=CCC(O)C=CC(C)=CC(NC(=O)C(C)=O)C2(C)C(=O)OC(C1)C(C)C2=O (stereo not drawn) [Lankacidin C 14-butylate]"
qualitative_label = 0.0


---

# Method description: Solubility of lankacidin C in aqueous cyclodextrin solution, shaken at 5° C. for 2 hours (Example 1)
# Assay type: physicochemical
# Experimental context: aqueous γ-cd solution, γ-CD 10^-4 Mol/l
Reported endpoint: solubility at 2 h (µg/mL)

[[record]]
compound = "CC(=O)C(=O)NC1C=C(C)C=CC(O)CC=C(C)C=CC(O)CC2OC(=O)C1(C)C(=O)C2C (stereo not shown) [Lankacidin C, lankacidin C]"
reported_endpoint = "solubility at 2 h"
value = 260


---

# Method description: Solubility in β-CD solution, shaken 16 hours (Example 3)
# Type: physicochemical
# Experimental context: aqueous β-cd solution, β-CD 10^-2 Mol/l
Reported endpoint: solubility at 16 h

[[record]]
molecule = "CC(=O)C(=O)NC1C=C(C)C=CC(O)CC=C(C)C=CC(O)CC2OC(=O)C1(C)C(=O)C2C (stereo not drawn) [Lankacidin C, lankacidin C]"
reported_endpoint = "solubility at 16 h"
value = "3350 µg/mL"

[[record]]
molecule = "CC(=O)OC1C=CC(C)=CCC(O)C=CC(C)=CC(NC(=O)C(C)=O)C2(C)C(=O)OC(C1)C(C)C2=O (stereo not drawn) [Lankacidin A, lankacidin A]"
reported_endpoint = "solubility at 16 h"
value = "2690 µg/mL"

[[record]]
molecule = "CC1=CCC(O)C=CC(C)=CC(NC(=O)C(C)O)C2(C)C(=O)OC(CC(O)C=C1)C(C)C2=O (stereo not drawn) [Lankacidinol, lankacidinol]"
reported_endpoint = "solubility at 16 h"
value = "2750 µg/mL"


---

# Method description: Stability of lankacidin A and C in methanolic aqueous solutions, 40° C., HPLC (Example 7)
# Type: physicochemical
# Experimental context: methanolic buffer with β-cyclodextrin; 10 μg/ml; pH 4.5; β-cyclodextrin 10 mg/ml; 6 hr; 40° C.; read-out: Residual rate
Reported endpoint: remaining at 6 h

[[record]]
compound = "CC(=O)OC1C=CC(C)=CCC(O)C=CC(C)=CC(NC(=O)C(C)=O)C2(C)C(=O)OC(C1)C(C)C2=O (stereo not shown)"
reported_endpoint = "remaining at 6 h"
value = "85.7%"


---

# Method description: Solubility of lankacidin-group in β-CD solution (10^-2 Mol/l), shaken 30 minutes to one hour (Example 4)
# Type: physicochemical
# Experimental context: aqueous β-cyclodextrin solution; β-CD 10^-2 Mol/l; read-out: Solubility
# Method: Powdery lankacidin C was added to an aqueous solution of cyclodextrin (hereinafter referred to as "CD") to have 4 mg/ml of the lankacidin C contained. […] The absorbancy of the filtrate was measured at 227-229 nm to determine concentration of the lankacidin C. The solubility of lankacidin-group in a solution of β-CD (10^-2 Mol/l) were measured in the same manner as that of Example 1 except that the shaking was continued for 30 minutes to one hour.
Returns Condition met if the recorded solubility is greater than or equal to 400 µg/mL, and Condition not met otherwise.

[[record]]
compound = "CC(=O)OC1C=CC(C)=CC(NC(=O)C(C)=O)C2(C)C(=O)OC(CC(O)C=CC(C)=CC1)C(C)C2=O (stereo not drawn) [Lankacidin C 8-acetate, lankacidin C 8-acetate]"
qualitative_label = "Condition met"

[[record]]
compound = "CC(=O)OC1C=CC(C)=CCC(O)C=CC(C)=CC(NC(=O)C(C)O)C2(C)C(=O)OC(C1)C(C)C2=O (stereo not drawn) [Lankacidinol A, lankacidinol A]"
qualitative_label = "Condition met"

[[record]]
compound = "CCCC(=O)OC1C=CC(C)=CCC(O)C=CC(C)=CC(NC(=O)C(C)=O)C2(C)C(=O)OC(C1)C(C)C2=O (stereo not drawn) [Lankacidin C 14-butylate]"
qualitative_label = "Condition not met"

[[record]]
compound = "CC(=O)OC1C=CC(C)=CC(NC(=O)C(C)=O)C2(C)C(=O)OC(CC(OC(C)=O)C=CC(C)=CC1)C(C)C2=O (stereo not drawn) [Lankacidin C 8,14-diacetate, lankacidin C 8,14-diacetate]"
qualitative_label = "Condition met"

[[record]]
compound = "CC(=O)OC1C=CC(C)=CC(NC(=O)C(C)O)C2(C)C(=O)OC(CC(OC(C)=O)C=CC(C)=CC1)C(C)C2=O (stereo not drawn) [Lankacidinol 8,14-diacetate]"
qualitative_label = "Condition met"


---

# Method description: Solubility of lankacidin C in aqueous cyclodextrin solution, shaken at 5° C. for 2 hours (Example 1)
# Type: physicochemical
# Experimental context: aqueous γ-cd solution, γ-CD 10^-3 Mol/l
Reported endpoint: solubility at 2 h

[[record]]
compound = "CC(=O)C(=O)NC1C=C(C)C=CC(O)CC=C(C)C=CC(O)CC2OC(=O)C1(C)C(=O)C2C (stereo not shown) [Lankacidin C, lankacidin C]"
value = "460 µg/mL"


---

# Method description: Solubility in β-CD solution, shaken 16 hours (Example 3)
# Format: physicochemical
# Experimental context: aqueous β-cd solution, β-CD 2 × 10^-3 Mol/l
Reported endpoint: solubility at 16 h

[[record]]
compound = "CC(=O)OC1C=CC(C)=CCC(O)C=CC(C)=CC(NC(=O)C(C)=O)C2(C)C(=O)OC(C1)C(C)C2=O (stereo not drawn)"
value = "632 µg/mL"

[[record]]
compound = "CC(=O)C(=O)NC1C=C(C)C=CC(O)CC=C(C)C=CC(O)CC2OC(=O)C1(C)C(=O)C2C (stereo not drawn)"
value = "934 µg/mL"

[[record]]
compound = "CC1=CCC(O)C=CC(C)=CC(NC(=O)C(C)O)C2(C)C(=O)OC(CC(O)C=C1)C(C)C2=O (stereo not drawn)"
value = "1360 µg/mL"

